# target-under-test: PcGSTFuA4 (Phanerodontia chrysosporium, UniProt M1NR33)
# Construct: full length, untagged, pET-3d, E. coli BL21(DE3) pSBET; primers encode N-term MADVITLY, C-term AHVDL
# Sequence (M1NR33 entry or part of it): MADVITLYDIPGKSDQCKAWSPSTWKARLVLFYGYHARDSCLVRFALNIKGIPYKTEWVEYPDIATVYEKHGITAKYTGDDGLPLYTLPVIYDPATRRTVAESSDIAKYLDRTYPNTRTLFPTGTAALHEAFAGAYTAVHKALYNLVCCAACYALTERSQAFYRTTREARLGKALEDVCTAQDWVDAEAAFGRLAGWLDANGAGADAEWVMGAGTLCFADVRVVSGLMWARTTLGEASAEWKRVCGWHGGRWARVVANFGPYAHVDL
# assay-protocol: ANS displacement, fluorescence
# measurement-setup: TE buffer pH 8.0; 3 µM enzyme; ANS probe at L-site overlapping G-site
What IC50 was measured for each of the following?
Write the answer as a number in µM, unit excluded.

Problem: For PcGSTFuA4 (Phanerodontia chrysosporium, UniProt M1NR33), provide IC50 of COc1cc(/C=C/C=O)ccc1O [Coniferaldehyde] please.
Result: 147

Problem: How about COc1cc(C=O)cc(OC)c1O [Syringaldehyde] ?
Result: 199

====

# target-under-test: PcGSTFuA2
# Construct: gene GSTFuA2; full length, untagged, pET-3d, E. coli BL21(DE3) pSBET; Ala inserted after Met1; dimer; primers encode N-term MASQPIVF, C-term ERADD
# assay-protocol: ANS displacement, fluorescence
# Assay type: binding, Phanerodontia chrysosporium
# measurement-setup: TE buffer pH 8.0; 3 µM enzyme; ANS probe at L-site overlapping G-site
measured-endpoint: pIC50
Scale note: pIC50 = -log10(concentration in M).

Problem: Give its pIC50 value. Item: COc1cc(C=O)cc(OC)c1O [Syringaldehyde]
Result: 4.05

Problem: How about COc1cc(C=O)ccc1O [Vanillin] ?
Result: 4.07

====

# target-under-test: PcGSTFuA3
# Construct: full length, untagged, pET-3d, E. coli BL21(DE3) pSBET; Ala inserted after Met1; dimer; primers encode N-term MASLEPII, C-term EFVDV
# assay-protocol: ANS displacement, fluorescence
# measurement-setup: TE buffer pH 8.0; 3 µM enzyme; ANS probe at L-site overlapping G-site
measured-endpoint: pIC50
Scale note: pIC50 = -log10(concentration in M).

Problem: Give its pIC50 value. Item: COc1cc(C=O)cc(OC)c1O
Result: 4.43

Problem: How about COc1cc(/C=C/C=O)ccc1O ?
Result: 4.16
